Listing of recorded IC50 by entry.
Target: Recombinant human TPH1 (MBP tagged) (Homo sapiens, UniProt P17752)
Construct: cloning full length human TPH1 cDNA in to a bacterial pMAL-c5E expression vector; made in house; host or cells: E. coli BL21 (DE3)
Sequence (P17752 whole entry): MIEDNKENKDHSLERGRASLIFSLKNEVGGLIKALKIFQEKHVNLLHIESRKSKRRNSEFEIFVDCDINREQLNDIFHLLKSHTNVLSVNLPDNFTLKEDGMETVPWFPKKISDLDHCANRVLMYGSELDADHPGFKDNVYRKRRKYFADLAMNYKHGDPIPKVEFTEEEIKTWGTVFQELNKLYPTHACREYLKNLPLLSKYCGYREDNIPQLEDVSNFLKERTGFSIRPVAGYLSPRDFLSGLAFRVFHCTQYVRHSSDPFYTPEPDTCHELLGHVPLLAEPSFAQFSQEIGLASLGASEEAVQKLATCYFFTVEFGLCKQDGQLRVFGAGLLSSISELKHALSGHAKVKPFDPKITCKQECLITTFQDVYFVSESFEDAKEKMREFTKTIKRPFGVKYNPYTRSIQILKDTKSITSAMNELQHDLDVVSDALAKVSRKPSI
Experiment: TPH1 in vitro inhibition assay (kinetic fluorescence)
Assay type: biochemical
Settings: TPH1 Range (TPH1 inhibition IC50)

{"columns": ["compound", "IC50"],
 "data": [
  ["Cc1cccc(-c2cc(Cl)ccc2[C@@H](Oc2cc(N3CCC4(CC3)CN[C@H](C(=O)O)C4)nc(N)n2)C(F)(F)F)n1 [Example 34i]", "50 to 300 nM"],
  ["Cc1cccc(-c2cc(Cl)ccc2[C@@H](Oc2cc(N3CCC4(CC3)CN[C@H](C(=O)O)C4)nc(N)n2)C(F)(F)F)c1 [Example 34b]", "< 50 nM"],
  ["Nc1nc(O[C@H](c2ccc(-c3ccc4cnccc4c3)cc2)C(F)(F)F)cc(N2CCC3(CC2)CN[C@H](C(=O)O)C3)n1 [Example 55bd]", "< 50 nM"],
  ["CS(=O)(=O)c1cccc(-c2cc(Cl)ccc2[C@@H](Oc2cc(N3CCC4(CC3)CN[C@H](C(=O)O)C4)nc(N)n2)C(F)(F)F)c1 [Example 34w]", "< 50 nM"],
  ["Nc1nc(O[C@H](c2ccc(-c3ccc4c(c3)CCC(=O)N4)cc2)C(F)(F)F)cc(N2CCC3(CC2)CN[C@H](C(=O)O)C3)n1 [Example 55v]", "< 50 nM"],
  ["CN1CCc2cc(-c3ccc([C@@H](Oc4cc(N5CCC6(CC5)CN[C@H](C(=O)O)C6)nc(N)n4)C(F)(F)F)cc3)ccc2C1=O [Example 55bj]", "< 50 nM"],
  ["Nc1nc(O[C@H](c2ccc(Cl)cc2-c2ccc(F)c(F)c2)C(F)(F)F)cc(N2CCC3(CC2)CN[C@H](C(=O)O)C3)n1 [Example 34aw]", "< 50 nM"],
  ["CS(=O)(=O)c1ccc(-c2cc(Cl)ccc2[C@@H](Oc2cc(N3CCC4(CC3)CN[C@H](C(=O)O)C4)nc(N)n2)C(F)(F)F)cc1 [Example 34ad]", "300 to 3000 nM"],
  ["Cc1nn(C)c2cc(-c3ccc([C@@H](Oc4cc(N5CCC6(CC5)CN[C@H](C(=O)O)C6)nc(N)n4)C(F)(F)F)cc3)ccc12 [Example 55ba]", "< 50 nM"],
  ["Nc1nc(O[C@H](c2ccc(Cl)cc2-c2cccnc2)C(F)(F)F)cc(N2CCC3(CC2)CN[C@H](C(=O)O)C3)n1 [Example 34bo]", "50 to 300 nM"],
  ["Cc1ccn(-c2cc(-c3ccc(Cl)c(Cl)c3)ccc2[C@@H](Oc2cc(N3CCC4(CC3)CN[C@H](C(=O)O)C4)nc(N)n2)C(F)(F)F)n1", "< 50 nM"],
  ["Nc1nc(O[C@H](c2ccc(Cl)cc2-c2cccc(N3CCCC3=O)c2)C(F)(F)F)cc(N2CCC3(CC2)CN[C@H](C(=O)O)C3)n1 [Example 34o]", "50 to 300 nM"],
  ["Cc1ccn(-c2cc(-c3ccc(C)c(C)c3)ccc2[C@@H](Oc2cc(N3CCC4(CC3)CN[C@@H](C(=O)O)C4)nc(N)n2)C(F)(F)F)n1 [Example 54m]", "300 to 3000 nM"],
  ["Nc1nc(O[C@H](c2ccc(Cl)cc2-c2cccc(Cl)c2)C(F)(F)F)cc(N2CCC3(CC2)CN[C@H](C(=O)O)C3)n1 [Example 34a]", "< 50 nM"],
  ["Nc1nc(O[C@H](c2ccc(Cl)cc2-c2ccccc2)C(F)(F)F)cc(N2CCC3(CC2)CN[C@H](C(=O)O)C3)n1 [Example 34c]", "50 to 300 nM"],
  ["Cc1ccn(-c2cc(-c3ccc(C)c(C)c3)ccc2[C@H](Oc2cc(N3CCC4(CC3)CN[C@@H](C(=O)O)C4)nc(N)n2)C(F)(F)F)n1 [Example 54l]", "3000 to 10000 nM"],
  ["CN(C)S(=O)(=O)c1cccc(-c2cc(Cl)ccc2[C@@H](Oc2cc(N3CCC4(CC3)CN[C@H](C(=O)O)C4)nc(N)n2)C(F)(F)F)c1 [Example 34cl]", "50 to 300 nM"],
  ["Nc1nc(O[C@H](c2ccc(-c3ccc4ncc(F)cc4c3)cc2)C(F)(F)F)cc(N2CCC3(CC2)CN[C@H](C(=O)O)C3)n1 [Example 55dc]", "< 50 nM"],
  ["Cc1ccn(-c2cc(-c3ccc(C)c(C)c3)ccc2[C@H](Oc2cc(N3CCC4(CC3)CN[C@H](C(=O)O)C4)nc(N)n2)C(F)(F)F)n1 [Example 54k]", "50 to 300 nM"],
  ["CCOc1ccc(-c2cc(Cl)ccc2[C@@H](Oc2cc(N3CCC4(CC3)CN[C@H](C(=O)O)C4)nc(N)n2)C(F)(F)F)cc1Cl [Example 34ai]", "50 to 300 nM"],
  ["Nc1nc(O[C@H](c2ccc(Cl)cc2-c2cccc(F)c2)C(F)(F)F)cc(N2CCC3(CC2)CN[C@H](C(=O)O)C3)n1 [Example 34as]", "< 50 nM"],
  ["Nc1nc(O[C@H](c2ccc(Cl)cc2-c2ccccc2)C(F)(F)F)cc(N2CCC3(CC2)CN[C@@H](C(=O)O)C3)n1 [Example 54h]", "3000 to 10000 nM"],
  ["Nc1nc(O[C@H](c2ccc(Cl)cc2-c2ccc(Cl)cc2)C(F)(F)F)cc(N2CCC3(CC2)CN[C@H](C(=O)O)C3)n1 [Example 34bw]", "50 to 300 nM"],
  ["Nc1nc(O[C@H](c2ccc(Cl)cc2-c2cccc(S(N)(=O)=O)c2)C(F)(F)F)cc(N2CCC3(CC2)CN[C@H](C(=O)O)C3)n1 [Example 34u]", "< 50 nM"]
]}
